assay-target: T1, EsCas13d, nuclease-dead (Eubacterium siraeum, UniProt B0MS50, R295A;H300A;R849A;H854A)
T1 sequence: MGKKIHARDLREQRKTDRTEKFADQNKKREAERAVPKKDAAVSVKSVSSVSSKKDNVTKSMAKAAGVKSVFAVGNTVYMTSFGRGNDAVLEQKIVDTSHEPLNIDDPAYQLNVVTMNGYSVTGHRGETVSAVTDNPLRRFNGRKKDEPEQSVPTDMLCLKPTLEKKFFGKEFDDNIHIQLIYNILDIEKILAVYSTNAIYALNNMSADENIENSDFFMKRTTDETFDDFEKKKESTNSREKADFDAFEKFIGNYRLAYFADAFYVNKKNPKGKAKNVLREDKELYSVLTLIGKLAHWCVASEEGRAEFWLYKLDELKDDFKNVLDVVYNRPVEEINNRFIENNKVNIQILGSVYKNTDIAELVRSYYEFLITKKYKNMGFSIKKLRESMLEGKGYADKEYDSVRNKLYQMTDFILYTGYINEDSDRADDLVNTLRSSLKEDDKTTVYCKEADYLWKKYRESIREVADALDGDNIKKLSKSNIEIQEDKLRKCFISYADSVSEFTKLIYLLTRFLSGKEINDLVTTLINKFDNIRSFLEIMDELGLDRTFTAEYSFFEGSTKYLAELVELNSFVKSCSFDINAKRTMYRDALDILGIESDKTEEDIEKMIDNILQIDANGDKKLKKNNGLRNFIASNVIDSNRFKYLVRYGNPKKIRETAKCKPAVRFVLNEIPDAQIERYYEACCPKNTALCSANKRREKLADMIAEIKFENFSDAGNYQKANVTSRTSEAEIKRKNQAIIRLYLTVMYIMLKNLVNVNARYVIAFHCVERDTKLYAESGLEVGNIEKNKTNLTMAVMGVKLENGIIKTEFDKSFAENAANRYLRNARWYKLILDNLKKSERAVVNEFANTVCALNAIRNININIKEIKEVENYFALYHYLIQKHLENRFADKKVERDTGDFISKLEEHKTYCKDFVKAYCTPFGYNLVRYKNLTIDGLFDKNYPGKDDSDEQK
protocol-details: crRNA (strand 1, pre-loaded); Mg2+; 40 mM Tris-HCl pH 7.5, 150 mM NaCl, 6 mM MgCl2, 1 mM DTT, 0.1% Tween-20, 0.2 mg/ml BSA; 25 C; 10 min per concentration, then washed
reported-conditions: tags: His6-TwinStrep-SUMO cleaved; N-terminal SNAP kept (SNAP-Surface 488); label: 3' end held by stalled T7 RNA polymerase
pKd: −log10 of the molar value.
quantity-name: pKd

binder	quantity-name	measured-value
target 2 MT 5'PFS GCA 3'PFS UCC (mixed) RNA 1: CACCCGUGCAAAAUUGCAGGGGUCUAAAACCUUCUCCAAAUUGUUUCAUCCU RNA 2: GGGAAUGGAUCCACAUCUACGAAUUCGCAAGGAUGAAACAAUUUGGAGAAGUCCAGAUCGGAAGAGCACACGU	pKd	7.49
target 1 MT 5'PFS GAG 3'PFS UUA (mixed) RNA 1: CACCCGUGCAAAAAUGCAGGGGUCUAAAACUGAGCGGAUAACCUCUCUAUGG RNA 2: GGGAAUGGAUCCACAUCUACGAAUUCGAGCCAUAGAGAGGUUAUCCGCUCAUUAAGAUCGGAAGAGCACACGU	pKd	7.44
target 1 insC 3' of 20,insA 3' of 5 (mixed) RNA 1: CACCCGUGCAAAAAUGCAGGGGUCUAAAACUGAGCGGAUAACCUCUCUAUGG RNA 2: GGGAAUGGAUCCACAUCUACGAAUUCGUACCACUAGAGAGGUUAUCCGACUCACCGAGAUCGGAAGAGCACACGU	pKd	8.14
target 1 MT 5'PFS UAU 3'PFS UCG (mixed) RNA 1: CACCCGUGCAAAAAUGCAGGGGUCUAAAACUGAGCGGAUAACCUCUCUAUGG RNA 2: GGGAAUGGAUCCACAUCUACGAAUUCUAUCCAUAGAGAGGUUAUCCGCUCAUCGAGAUCGGAAGAGCACACGU	pKd	7.54
target 1 insA 3' of 15,insC 3' of 1 (mixed) RNA 1: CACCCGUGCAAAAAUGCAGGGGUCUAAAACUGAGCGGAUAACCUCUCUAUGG RNA 2: GGGAAUGGAUCCACAUCUACGAAUUCGUACCAUAGAGAAGGUUAUCCGCUCACCCGAGAUCGGAAGAGCACACGU	pKd	8.15
target 3 insC 3' of 9,insG 3' of 8 (mixed) RNA 1: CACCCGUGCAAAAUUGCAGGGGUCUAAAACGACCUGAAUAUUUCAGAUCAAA RNA 2: GGGAAUGGAUCCACAUCUACGAAUUCGUUUUUGAUCUGAAAUACUGUCAGGUCUGCAGAUCGGAAGAGCACACGU	pKd	7.08
target 3 insU 3' of 22,insA 3' of 3 (mixed) RNA 1: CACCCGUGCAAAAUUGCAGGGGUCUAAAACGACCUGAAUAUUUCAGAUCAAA RNA 2: GGGAAUGGAUCCACAUCUACGAAUUCGUUUUUUGAUCUGAAAUAUUCAGGAUCUGCAGAUCGGAAGAGCACACGU	pKd	7.66
target 2 MT 5'PFS AGC 3'PFS AAU (mixed) RNA 1: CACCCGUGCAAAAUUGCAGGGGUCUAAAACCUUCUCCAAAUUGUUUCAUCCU RNA 2: GGGAAUGGAUCCACAUCUACGAAUUCAGCAGGAUGAAACAAUUUGGAGAAGAAUAGAUCGGAAGAGCACACGU	pKd	8.15
target 1 G5U,G17A (mixed) RNA 1: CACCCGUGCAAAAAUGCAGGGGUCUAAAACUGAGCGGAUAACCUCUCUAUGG RNA 2: GGGAAUGGAUCCACAUCUACGAAUUCGUACCAUAAAGAGGUUAUCCUCUCACCGAGAUCGGAAGAGCACACGU	pKd	7.04
target 1 G17A,C21A (mixed) RNA 1: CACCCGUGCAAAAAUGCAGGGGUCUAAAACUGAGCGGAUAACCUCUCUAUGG RNA 2: GGGAAUGGAUCCACAUCUACGAAUUCGUACAAUAAAGAGGUUAUCCGCUCACCGAGAUCGGAAGAGCACACGU	pKd	7.25
target 1 A9C,A16C (mixed) RNA 1: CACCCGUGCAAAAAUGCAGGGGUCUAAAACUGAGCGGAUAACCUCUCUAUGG RNA 2: GGGAAUGGAUCCACAUCUACGAAUUCGUACCAUAGCGAGGUUCUCCGCUCACCGAGAUCGGAAGAGCACACGU	pKd	7.07
target 2 MT 5'PFS UGU 3'PFS AGU (mixed) RNA 1: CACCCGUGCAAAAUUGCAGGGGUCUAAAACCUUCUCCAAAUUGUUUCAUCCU RNA 2: GGGAAUGGAUCCACAUCUACGAAUUCUGUAGGAUGAAACAAUUUGGAGAAGAGUAGAUCGGAAGAGCACACGU	pKd	7.83
target 3 A5G,U21A (mixed) RNA 1: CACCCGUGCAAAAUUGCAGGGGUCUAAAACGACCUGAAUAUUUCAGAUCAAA RNA 2: GGGAAUGGAUCCACAUCUACGAAUUCGUUUAUGAUCUGAAAUAUUCGGGUCUGCAGAUCGGAAGAGCACACGU	pKd	7.01
target 1 insU 3' of 17,insA 3' of 7 (mixed) RNA 1: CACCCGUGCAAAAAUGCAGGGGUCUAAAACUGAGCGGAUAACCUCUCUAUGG RNA 2: GGGAAUGGAUCCACAUCUACGAAUUCGUACCAUAGUAGAGGUUAUCACGCUCACCGAGAUCGGAAGAGCACACGU	pKd	7.85
